test_summary: Pharmacokinetic study after single intravenous administration to rats
Type: in vivo
recorded_conditions: male, Sprague-Dawley, rat, plasma, single intravenous 0.1 mg/kg, n = 4, mean ± S.D.
parameter: clearance (mL/min/kg)
Give just the numeric value; mL/min/kg need not be written.

Endpoint output: clearance of COc1ccc(CC(=O)c2ccc3c(c2OC)C=CC(C)(C)O3)cc1OC [SH-1242] . Value?
30.5

---

test_summary: Pharmacokinetic study after single intravenous administration to mice
Format: in vivo
recorded_conditions: male, ICR, plasma, single intravenous 0.1 mg/kg, representative (one time point per mouse)
parameter: MRT (min)
Give just the numeric value; min need not be written.

Endpoint output: MRT of `COc1ccc(CC(=O)c2ccc3c(c2OC)C=CC(C)(C)O3)cc1OC` . Value?
29.6
